// data source = patent US20240150440A1

Kd overview
molecular target: recombinant SARS-CoV-2 RBD with C-terminal AviTag (SARS-CoV-2, UniProt P0DTC2 319-541); test: BLI, biotinylated RBD on streptavidin biosensors [Cont. 6]
Response body: numeric value in nM, unit text excluded.

Study these solved cases before continuing.
PP903 MBP-5HVZ-R1i-A11-H6 (VHH, Form: Dimer) VHH: QVQLVESGGGLVQPGGSLRLSCAASGSILQINAIHWFRQAPGKQREEVAAITSGGSTGYADSVKGRFTISRDNAKNTVYLQMNSLKPEDTAVYYCAATSTRGGLDSDYWGQGTQVTVSS :: 6.98
PP901 MBP-5HVZ-R1e-B2-H6 (VHH, Form: Dimer) VHH: QVQLVESGGGLVQPGGSLRLSCAASGQITAENYMHWYRQAPGKQREWVAAITTGGSTLYADSVKGRFTISRDNAKNTVYLQMNSLKPEDTAVYYCNADRSYFPDYWGQGTQVTVSS :: 197
PP904 MBP-5HVZ-R5b-C5-H6 (VHH, Form: Dimer) VHH: QVQLVESGGGLVQPGGSLRLSCAASGSPFKTQTVHWFRQAPGKGREWVASITSGSGTQYMDSVKGRFTISRDNAKNTVYLQMNSLKPEDTAVYYCAAANDGYGVDWGQGTQVTVSS :: 11.8

What the record says about PP884 MBP-R1i-A11-H6 (VHH, Form: Monomer) VHH: QVQLVESGGGLVQPGGSLRLSCAASGSILQINAIHWFRQAPGKQREEVAAITSGGSTGYADSVKGRFTISRDNAKNTVYLQMNSLKPEDTAVYYCAATSTRGGLDSDYWGQGTQVTVSS : Kd is 23.7
